- ASSAY: Surface-pressure area isotherms
- Format: physicochemical
- CONDITION NOTES: table; monolayer on pure water sub-phase

{"MOLECULE": "CCCCCCCCCCCCC/C=C/[C@@H](O)[C@H](CO)NC(=O)CCCCCCC [C8Cer, N-octanoyl-D-erythro-sphingosine]", "Area/molecule [A^2]": 45.5}
{"MOLECULE": "CCCCCCCCCCCCC/C=C/[C@@H](O)[C@H](CO)NC(=O)CCCCC [C6Cer, N-hexanoyl-D-erythro-sphingosine]", "Area/molecule [A^2]": 50}
{"MOLECULE": "CCCCCCCCCCCCC/C=C/[C@@H](O)[C@H](CO)NC(C)=O [C2Cer, N-Acetyl-D-erythro-sphingosine]", "Area/molecule [A^2]": 38}
{"MOLECULE": "CCCCCCCCCCCCC/C=C/[C@@H](O)[C@H](CO)NC(=O)CCCCCCCCCCCCCCC [C16Cer, N-palmitoyl-D-erythro-sphingosine]", "Area/molecule [A^2]": 37.5}
{"MOLECULE": "CCCCCCCCCCCCC/C=C/[C@@H](O)[C@H](CO)NC(=O)CCC [C4Cer, N-tetranoyl-D-erythro-sphingosine]", "Area/molecule [A^2]": 46}
